- system under test: T1, Rab8a_(1-176) (human, UniProt P61006 1-176)
- T1 sequence: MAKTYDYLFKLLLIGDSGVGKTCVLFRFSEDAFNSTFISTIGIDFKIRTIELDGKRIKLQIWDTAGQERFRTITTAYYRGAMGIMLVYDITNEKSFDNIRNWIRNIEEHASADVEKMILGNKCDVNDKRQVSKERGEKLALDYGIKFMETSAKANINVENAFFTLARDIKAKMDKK
- protocol notes: SEC
quantity kind: binding result

[[record]]
binder = "bMERB_(V978A_V985A) (domain or fragment) KEEEMKRFCKAQTIQRRLNEIEAALRELEAEGVKLELALRRQSSSPEQQKKLWVGQLLQLADKKNSLAAEEAELMITVQELNLEEKQWQLDQELRGYMNREENLKTAADRQAEDQVLRKLVDLVNQRDALIRFQEERRLSELALGTGAQG"
test_result = "binds"

[[record]]
binder = "bMERB E939A (domain or fragment) KEEEMKRFCKAQTIQRRLNEIAAALRELEAEGVKLELALRRQSSSPEQQKKLWVGQLLQLVDKKNSLVAEEAELMITVQELNLEEKQWQLDQELRGYMNREENLKTAADRQAEDQVLRKLVDLVNQRDALIRFQEERRLSELALGTGAQG"
test_result = "binds"

[[record]]
binder = "bMERB L956S (domain or fragment) KEEEMKRFCKAQTIQRRLNEIEAALRELEAEGVKLELASRRQSSSPEQQKKLWVGQLLQLVDKKNSLVAEEAELMITVQELNLEEKQWQLDQELRGYMNREENLKTAADRQAEDQVLRKLVDLVNQRDALIRFQEERRLSELALGTGAQG"
test_result = "binds"

